- Tested on: L1210 leukemia ip in BDF1 mice, survival T/C
- Assay: NCI In Vivo Anticancer Drug Screen. Data for tumor model L1210 Leukemia (intraperitoneal) in B6D2F1 (BDF1) mice
- Assay setup: endpoint: mean survival time; dose: 400.0 mg/kg/injection; schedule: Q01DX001 (ip); vehicle: saline with Tween-80; higher = longer survival
Toxic doses and inconclusive results are not listed.
Would you kindly list T/C for each of these compounds?

With L1210 leukemia ip in BDF1 mice, survival T/C as the test system, `Nc1ccnc2n[nH]nc12` showed T/C of 104 % of control

With L1210 leukemia ip in BDF1 mice, survival T/C as the test system, `O=C(/C=C/c1ccccc1)NC(=S)Nc1ccc(O)cc1` showed T/C of 96 % of control

With L1210 leukemia ip in BDF1 mice, survival T/C as the test system, `Cc1ccc(Cl)cc1NC(=O)Nc1cc(Cl)c(Cl)cc1C` showed T/C of 89 % of control

With L1210 leukemia ip in BDF1 mice, survival T/C as the test system, `O=C(O)c1cscc1Cc1cccs1` showed T/C of 103 % of control

With L1210 leukemia ip in BDF1 mice, survival T/C as the test system, CCCCCCCCCCCCCCCCC1CC2CCCCC2C1 (configuration not stated) showed T/C of 94 % of control

With L1210 leukemia ip in BDF1 mice, survival T/C as the test system, Cc1ccc(S(=O)NOCCCCONS(=O)c2ccc(C)cc2)cc1 (configuration not stated) showed T/C of 106 % of control

With L1210 leukemia ip in BDF1 mice, survival T/C as the test system, `CC(=O)Nc1cccc(/C=C/c2nc(N)nc(N)c2-c2ccc(Cl)cc2)c1` showed T/C of 90 % of control

With L1210 leukemia ip in BDF1 mice, survival T/C as the test system, CCCCCCCCCCNC(C1=C(O)c2ccccc2C(=O)C1=O)c1ccccc1 (configuration not stated) showed T/C of 86 % of control

With L1210 leukemia ip in BDF1 mice, survival T/C as the test system, `Nc1nc(N)c(-c2ccc(Cl)c(Cl)c2)c(/C=C/c2ccc(S(=O)(=O)F)cc2)n1` showed T/C of 87 % of control

With L1210 leukemia ip in BDF1 mice, survival T/C as the test system, CC(=O)NC1C(OCc2ccccc2)OC(COCc2ccccc2)C(OCc2ccccc2)C1OCc1ccccc1 (configuration not stated) showed T/C of 94 % of control

With L1210 leukemia ip in BDF1 mice, survival T/C as the test system, `O=[N+]([O-])c1cccc(CNc2ccccc2)c1` showed T/C of 93 % of control

With L1210 leukemia ip in BDF1 mice, survival T/C as the test system, `COc1ccc(Cl)cc1NC(=O)COc1ccccc1` showed T/C of 101 % of control

With L1210 leukemia ip in BDF1 mice, survival T/C as the test system, `Cc1cc(C)cc(CCc2cc(C)cc(C)c2)c1` showed T/C of 89 % of control

With L1210 leukemia ip in BDF1 mice, survival T/C as the test system, `c1ccc(P(=NC2CCCCCCC2)(c2ccccc2)c2ccccc2)cc1` showed T/C of 105 % of control

With L1210 leukemia ip in BDF1 mice, survival T/C as the test system, `CN(C)CC/C(=N\Nc1ccc([N+](=O)[O-])cc1[N+](=O)[O-])c1ccccc1` showed T/C of 92 % of control

With L1210 leukemia ip in BDF1 mice, survival T/C as the test system, COC(=O)C(Cc1[nH]cnc1N=Nc1ccc(Br)cc1)NC(C)=O (configuration not stated) showed T/C of 96 % of control

With L1210 leukemia ip in BDF1 mice, survival T/C as the test system, `COc1ccc(OC)c(/C=N/NC(=O)CCCCCCCCC(=O)N/N=C/c2cc(OC)ccc2OC)c1` showed T/C of 87 % of control

Value source: PubChem BioAssay AID248
